# assay_text: gradient 5% acetonitrile 3 min, to 50% in 2 min, to 85% in 15 min, held 3 min, 100 µL/min
# condition_details: column: Zorbax Extend-C18 2.1 x 50 mm; eluents: water / acetonitrile, 0.1% formic acid
Class field: derived from RP-LC retention time; ranges low = under 700 s, medium = from 700 s up to 900 s, high = 900 s and over

CCCC(=O)N1CCCN(C2=NS(=O)(=O)C(c3ccc(Cl)cc3)=C2C)CC1    medium
Cc1noc(C2(NC(=O)c3ccc4ccccc4n3)CCCCC2)n1    high
Cc1ccc(Oc2nccn3c(=O)n(CC(=O)NC(C)CCc4ccccc4)nc23)cc1 (stereo not drawn)    high
CC(=O)c1ccc(Nc2c(C(=O)N3CCCC3)cnc3nc(C)ccc23)cc1    low

Problem: Field: class (RP-LC retention time) — entry: COc1ccccc1N1CCN(c2cc(SCC(=O)Nc3ccc(F)cc3)ncn2)CC1
Solution: high

Problem: Please let me know in which category the item Cc1cc(C)cc(C(=O)N2CCN(c3nc(C)cc(N4CCCCC4)n3)CC2)c1 belongs.
Solution: medium

Problem: Quick check: band for COc1ccc(CCC(=O)N2CCN(c3cc(C)c4ccccc4n3)CC2)cc1OC
Solution: low

Problem: Which RP-LC retention time category applies to CSc1cccc(NC(=O)c2cn(C)nc2S(=O)(=O)N2CCC(C)CC2)c1 here?
Solution: high

Problem: Note: place this compound into its band. Item: CCCCc1cc(=O)oc2cc(C)cc(OC(C)C(=O)N3CCC4(O)CCCCC4C3)c12 (stereo not drawn)
Solution: high

Problem: Bin? COc1ccc(Cl)cc1NC(=O)N1CCN(CCn2c(C(C)C)nc3cccnc32)CC1
Solution: low

Problem: Which class is correct for the following compound? CC1=C(c2ccccc2)S(=O)(=O)N=C1N1CCC(NC(=O)c2ccoc2)CC1
Solution: medium

Problem: Classify this compound: CC(=O)N1CCc2cc(CNS(=O)(=O)c3ccc(F)cc3)ccc21
Solution: medium

Problem: Which band does Cc1cc(N2CCC(NC(=O)Nc3cccc(Cl)c3F)C2=O)ccc1F (stereo not drawn) fall in?
Solution: high

Problem: For the record COc1ccccc1C(=O)N1CCC2(C1)C(=O)Nc1ccccc12 (stereo not drawn) , report the class its RP-LC retention time corresponds to.
Solution: low

Problem: Category of CCOc1ccc(N2CC(c3nc(-c4cccc(C)c4)no3)CC2=O)cc1 (stereo not drawn) :
Solution: high

Problem: Any idea which band O=C(CCCN1CCC(O)(c2cccc(C(F)(F)F)c2)CC1)c1ccc(F)cc1 is in?
Solution: medium

Problem: Class label required: CCn1c(CCC(=O)NCc2ccc(F)cc2F)nc2c(C)cccc2c1=O
Solution: medium

Problem: Band for the recorded RP-LC retention time of Cn1nc(CNC(=O)c2ccc(F)c(F)c2)c2ccccc21 ?
Solution: medium

Problem: Into which category would you place CCN(CC)CCNC(=O)C1CCN(c2ccc(-c3cccs3)nn2)CC1 ?
Solution: low

====

Task for the reader: assign each of the following molecules its reported RP-LC retention time.
# assay_text: gradient 5% acetonitrile 3 min, to 50% in 2 min, to 85% in 15 min, held 3 min, 100 µL/min
# condition_details: column: Zorbax Extend-C18 2.1 x 50 mm; eluents: water / acetonitrile, 0.1% formic acid
Give bare numbers, in s.

Use the examples below as a reference point.
COc1ccc(Cn2nc3ccc(S(=O)(=O)N4CCOCC4)cn3c2=O)cc1F    811
Cc1ccc(-n2ncc3c(N4CCN(C)CC4)ncnc32)cc1Cl    607
O=C(NC1(c2nc(-c3ccncc3)no2)CCCCC1)c1ccc2c(c1)OCO2    876
NC(=O)OCCCc1ccccc1    817
O=C(NCCCn1cccn1)c1c(OCC2CC2)cc(=O)n2c1CCCCC2    634
COCC(C)(O)CNC(=O)c1ccsc1 (stereo not given)    581
O=S(=O)(c1ccc(F)cc1F)N1CC(COc2ccncc2)C2(CCOCC2)C1 (stereo not given)    613
O=C1CC(C(=O)N2CCCCCC2)CN1CCc1ccccc1 (stereo not given)    760
O=C(c1ccc(Cl)cc1)N1CCc2nc[nH]c2C1    568
Cc1ccc(N(C)C(=O)c2nc(N3CCSCC3)c3cnn(C)c3n2)cc1    812

Provide RP-LC retention time values for the following items, in order.
1. O=C(NC(Cc1c[nH]c2ccccc12)C(=O)O)c1ccc(Cl)cc1 (stereo not given)
2. Cc1cccc(Nc2c(-c3nc(C)no3)cnc3nc(C)ccc23)c1
3. Cc1onc(-c2ccccc2Cl)c1C(=O)N1CC2CC1C(=O)O2 (stereo not given)
4. CN(C(=O)Cc1ccc(Cl)c(Cl)c1)[C@@H](CN1CCCC1)c1ccccc1

Solution:
1. 724
2. 762
3. 693
4. 718
